Every entry's value here was drawn from patent US10231954B2.

Biological target: ZAP70 (Homo sapiens, UniProt P43403)
Sequence (P43403 1-619): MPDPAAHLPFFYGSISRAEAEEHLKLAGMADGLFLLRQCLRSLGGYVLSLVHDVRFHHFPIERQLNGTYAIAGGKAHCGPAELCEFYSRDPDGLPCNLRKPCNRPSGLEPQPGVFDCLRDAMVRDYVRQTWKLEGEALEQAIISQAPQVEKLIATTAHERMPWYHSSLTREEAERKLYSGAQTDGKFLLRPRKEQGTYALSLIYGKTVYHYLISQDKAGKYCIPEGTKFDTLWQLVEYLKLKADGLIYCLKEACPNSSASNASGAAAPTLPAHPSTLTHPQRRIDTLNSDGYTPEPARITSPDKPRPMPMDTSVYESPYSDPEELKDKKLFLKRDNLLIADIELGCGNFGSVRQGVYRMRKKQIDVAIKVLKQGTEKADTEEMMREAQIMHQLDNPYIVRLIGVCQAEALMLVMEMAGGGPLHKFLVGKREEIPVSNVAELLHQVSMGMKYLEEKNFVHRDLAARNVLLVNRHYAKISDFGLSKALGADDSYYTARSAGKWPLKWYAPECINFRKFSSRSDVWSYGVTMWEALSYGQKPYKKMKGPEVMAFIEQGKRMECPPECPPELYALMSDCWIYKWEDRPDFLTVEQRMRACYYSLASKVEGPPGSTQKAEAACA
Assay: Kinase profiling ZAP70
Format: biochemical
Details: 100 micromolar inhibitor concentration; 100 is no change
REPORTED_ENDPOINT: residual kinase activity, ZAP70
Number only, please.

Use these answered entries as a reference point.
CC(=O)Nc1nc2cc(C)ccc2s1 : 110
O=C(Nc1nc2ccc(O)cc2s1)c1ccncc1 : 92
CC(=O)Nc1nc2ccccc2s1 : 111

# evaluate next
IN: Suppose we examine the compound `O=C(Nc1nc2cc(O)ccc2s1)c1cccnc1` ; what residual kinase activity, ZAP70 value has been reported?
OUT: 110
